System: Bacillus thuringiensis
Experiment: Antimicrobial activity against Bacillus thuringiensis after 24 hrs by spectrophotometry
Type: functional
PARAMETER MEASURED: MIC

Answered cases to consult:
compound="CCOC(=O)C1C(c2cccs2)NC(=O)NC1(O)C(F)(F)F (stereo not given)" measurement="≥ 20 mg/mL"
compound="CCOC(=O)C1C(c2ccc(Cl)cc2)NC(=O)NC1(O)C(F)(F)F (stereo not given)" measurement="≥ 15 mg/mL"
compound="CCOC(=O)C1C(c2ccc(N(C)C)cc2)NC(=S)NC1(O)C(F)(F)F (stereo not given)" measurement="≥ 20 mg/mL"

[in] Return reported MIC; argument: CCOC(=O)C1C(c2ccccc2)NC(=S)NC1(O)C(F)(F)F (stereo not given)
[out] ≥ 15 mg/mL

[in] And then `CN(C)[C@@H]1C(O)=C(C(N)=O)C(=O)[C@@]2(O)C(O)=C3C(=O)c4c(O)cccc4[C@@](C)(O)[C@H]3C[C@@H]12` , what is it?
[out] 75 mg/mL

[in] And then CCOC(=O)C1C(c2ccc(O)cc2)NC(=O)NC1(O)C(F)(F)F (stereo not given) , what is it?
[out] ≥ 20 mg/mL
